Every entry's value here was drawn from the kinase profiling compilation of Christmann-Franck et al. (2016).

target: MST4 (human) (UniProt Q9P289); test: radiometric filter-binding kinase assay, Kinase HotSpot; settings: compound 0.5 µM; ATP 10 µM
Sequence (Q9P289 whole entry, looked up): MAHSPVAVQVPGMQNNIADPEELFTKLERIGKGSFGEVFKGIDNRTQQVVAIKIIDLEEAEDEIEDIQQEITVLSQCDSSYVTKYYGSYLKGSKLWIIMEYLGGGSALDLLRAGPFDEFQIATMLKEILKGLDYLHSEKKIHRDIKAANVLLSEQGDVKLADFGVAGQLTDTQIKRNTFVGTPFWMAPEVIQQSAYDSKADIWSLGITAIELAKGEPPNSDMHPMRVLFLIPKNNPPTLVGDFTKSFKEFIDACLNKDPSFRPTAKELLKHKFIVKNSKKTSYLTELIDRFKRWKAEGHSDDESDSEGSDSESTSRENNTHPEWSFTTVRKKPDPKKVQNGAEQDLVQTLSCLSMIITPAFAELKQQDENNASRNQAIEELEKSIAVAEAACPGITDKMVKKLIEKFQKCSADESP
Catalogue of residual activity readings, one per entry.
Give your result in % as a bare value.

Examples from the recorded data:
Q: Tell me residual activity reported for O=C1Nc2ccc(Cl)cc2/C1=C/c1cc(Cl)c(O)c(Cl)c1
A: 101

Q: Tell me residual activity reported for CCN(CC)C(=O)c1ccc(Nc2nc(OCC3CCCCC3)c3nc[nH]c3n2)cc1
A: 84.9

Q: Tell me residual activity reported for Cc1ccc(S(=O)(=O)/C=C/C#N)cc1
A: 90.7

Q: Tell me residual activity reported for Nc1ccc2ncnc(NCCc3ccc(Oc4ccccc4)cc3)c2c1
A: 94.4

Q: Tell me residual activity reported for Nc1ncnc2c1c(-c1ccc(Oc3ccccc3)cc1)cn2C1CCCC1
A: 95.2

Q: Tell me residual activity reported for CCN(CC)CCNC(=O)c1c(C)[nH]c(/C=C2\C(=O)Nc3ccc(Cl)cc32)c1C
A: 73.2

New cases:
Q: Tell me residual activity reported for CNc1cc2c(Nc3cccc(Br)c3)ncnc2cn1
A: 109

Q: Tell me residual activity reported for CNC(=O)c1cc(Oc2ccc(NC(=O)Nc3ccc(Cl)c(C(F)(F)F)c3)cc2)ccn1
A: 101

Q: Tell me residual activity reported for O=C1NC(=O)c2c1c1c3ccccc3n3c1c1c2c2ccccc2n1C1CCC3O1
A: 20.5

Q: Tell me residual activity reported for c1ccc(-c2n[nH]cc2-c2ccnc3ccccc23)nc1
A: 83.4

Q: Tell me residual activity reported for CCOC(=O)c1c(C)[nH]c(/C=C2\C(=O)Nc3ccccc32)c1C
A: 101
